Test system: SF-295 CNS
Assay: NCI tumour cell line growth inhibition, 48 h; in the data active = GI50 below about 0.43 µM; inactive = the rest
The reply should be one of these categories: YES = active, NO = inactive

Answered cases to consult:
smilesStructure: CC(C)c1nc(CN(C)C(=O)N[C@H](C(=O)N[C@@H](Cc2ccccc2)C[C@H](O)[C@H](Cc2ccccc2)NC(=O)OCc2cncs2)C(C)C)cs1
targetOrTestSystem: SF-295 CNS
categoryLabel: NO
//
smilesStructure: N#Cc1c(-c2ccc(F)cc2)nc(N/N=C/c2c[nH]c3ccccc23)nc1N1CCOCC1
targetOrTestSystem: SF-295 CNS
categoryLabel: NO
//
smilesStructure: FC(F)(F)c1cccc(Nc2nccc(-c3cnn4nc(-c5ccccc5)ccc34)n2)c1
targetOrTestSystem: SF-295 CNS
categoryLabel: NO
//
smilesStructure: CC(=O)OC[C@]1(C)C=C2C(=O)[C@](C)(O)C3(CC3)C(C)=C2[C@H]1O
targetOrTestSystem: SF-295 CNS
categoryLabel: YES

Challenge: Tell me the assay call for N#Cc1ccc(NC(=O)Nc2ccc(Oc3ccc(NC(=O)Nc4ccc(C#N)cc4)cc3)cc2)cc1 please.
Response given: YES

Challenge: Same thing, different compound: CCOc1cc2c(Cl)ncnc2c(OCC)c1OCC
Response given: NO

Challenge: Same thing, different compound: Oc1c(CN2CCC(N3CCCCC3)CC2)cc(Cc2cc(CN3CCC(N4CCCCC4)CC3)c(O)c3ncccc23)c2cccnc12
Response given: NO

Challenge: Same thing, different compound: CC[C@@]1(O)C(=O)OCc2c1cc1n(c2=O)Cc2c-1nc1cc3c(cc1c2CCl)OCO3
Response given: YES

Challenge: Same thing, different compound: OCc1c[nH]c2ccccc12
Response given: NO
